measured-target: PqsR (Pseudomonas aeruginosa, UniProt Q9I4X0)
Sequence (Q9I4X0 whole entry): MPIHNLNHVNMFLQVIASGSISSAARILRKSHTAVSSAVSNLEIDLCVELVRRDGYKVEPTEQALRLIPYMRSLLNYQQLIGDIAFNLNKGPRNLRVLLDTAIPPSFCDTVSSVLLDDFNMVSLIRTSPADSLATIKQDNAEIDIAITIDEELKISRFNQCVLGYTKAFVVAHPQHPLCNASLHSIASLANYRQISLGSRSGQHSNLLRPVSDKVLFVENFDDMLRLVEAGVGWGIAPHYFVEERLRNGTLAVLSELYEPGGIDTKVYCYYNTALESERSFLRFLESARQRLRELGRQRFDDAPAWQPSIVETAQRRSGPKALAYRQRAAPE
assay: E. coli based β-galactosidase reporter gene assay (PqsR inverse agonistic activity)
Format: cell-based
Design: expressed in transfected cells; host or cells: Escherichia coli DH5α
Protocol: Inhibition of pqsR-dependent gene expression of test compounds was determined in an E. coli based β-galactosidase reporter gene assay.[19] […] Antagonistic effects of compounds were evaluated in the presence of/in competition to 50 nM PQS. […] Finally, 995 μL of culture was added to each well and the p-galactosidase activity was determined by ortho-nitrophenyl-p-galactoside conversion in permeabilized cells after a 2.5 h incubation period (37° C., 180 rpm). […]
experimental-readout: IC50

molecular_string=CC(C)Oc1ccc(-c2nc(CNc3ccnc(C(F)(F)F)c3)cs2)cc1 measured_target="PqsR (Pseudomonas aeruginosa, UniProt Q9I4X0)" result="≤ 50 nM"
molecular_string=FC(F)(F)c1cc(SCc2ccc(-c3ccc(Cl)nc3)cc2)ccn1 measured_target="PqsR (Pseudomonas aeruginosa, UniProt Q9I4X0)" result="251 to 1000 nM"
molecular_string=FC(F)(F)c1nccc(SCc2cn(-c3ccc(Cl)cc3)nn2)n1 measured_target="PqsR (Pseudomonas aeruginosa, UniProt Q9I4X0)" result="251 to 1000 nM"
molecular_string=COc1ccc(-c2ccc(CNc3ccnc(C(F)(F)F)c3)nc2)cc1Cl measured_target="PqsR (Pseudomonas aeruginosa, UniProt Q9I4X0)" result="51 to 250 nM"
molecular_string=FC(F)(F)c1cc(SCc2nnn(-c3ccc(Cl)cc3)n2)ccn1 measured_target="PqsR (Pseudomonas aeruginosa, UniProt Q9I4X0)" result="251 to 1000 nM"
molecular_string=COc1cc(-n2cc(CNc3ccnc(C(F)(F)F)c3)nn2)ccc1Br measured_target="PqsR (Pseudomonas aeruginosa, UniProt Q9I4X0)" result="251 to 1000 nM"
molecular_string=N#Cc1cc(NCc2cn(-c3ccc(Oc4ccccc4)cc3)nn2)cc(Cl)n1 measured_target="PqsR (Pseudomonas aeruginosa, UniProt Q9I4X0)" result="≤ 50 nM"
molecular_string=Nc1cc(SCc2nc3cc(Oc4ccccc4)ccc3[nH]2)nc(C(F)(F)F)n1 measured_target="PqsR (Pseudomonas aeruginosa, UniProt Q9I4X0)" result="≤ 50 nM"
molecular_string=FC(F)(F)c1cc(SCc2nc3cc(Oc4ccccc4)ccc3[nH]2)ccn1 measured_target="PqsR (Pseudomonas aeruginosa, UniProt Q9I4X0)" result="≤ 50 nM"

###

measured-target: PqsR (Pseudomonas aeruginosa, UniProt Q9I4X0)
assay: E. coli based β-galactosidase reporter gene assay (PqsR inverse agonistic activity)
Format: cell-based
Parameters: expressed in transfected cells; host or cells: Escherichia coli DH5α
experimental-readout: IC50

molecule="CC(C)Oc1ccc(-c2ncc(CNc3cc(Cl)nc(C(F)(F)F)c3)s2)cc1Cl [Compound 094]" experimental_readout=IC50 result="≤ 50 nM"
molecule="CC(C)Oc1ccc(-c2ncc(CNc3ccnc(C(F)(F)F)c3)cn2)cc1Cl [Compound 108]" experimental_readout=IC50 result="≤ 50 nM"
molecule="FC(F)(F)Oc1ccc(-n2cc(CNc3ccnc(C(F)(F)F)c3)nn2)cc1 [Compound 012]" experimental_readout=IC50 result="≤ 50 nM"
molecule="Fc1cccc(-n2cc(CNc3ccnc(C(F)(F)F)c3)nn2)c1 [Compound 009]" experimental_readout=IC50 result="251 to 1000 nM"
molecule="FC(F)(F)c1cc(NCc2cn(-c3ccc(Oc4ccccc4)cc3)nn2)ccn1 [Compound 001]" experimental_readout=IC50 result="≤ 50 nM"
molecule="CC(C)Oc1ccc(-n2cc(CNc3cc(C#N)nc(C#N)c3)nn2)cc1Cl [Compound 159]" experimental_readout=IC50 result="≤ 50 nM"
molecule="FC(F)(F)c1cc(OCc2nc3cc(Oc4ccccc4)ccc3[nH]2)ccn1 [Compound 177]" experimental_readout=IC50 result="251 to 1000 nM"
molecule="FC(F)(F)c1cc(NCc2cn(-c3ccc(Cl)c(Cl)c3)nn2)ccn1 [Compound 005]" experimental_readout=IC50 result="≤ 50 nM"

###

assay: Metabolic stability in mouse liver microsomes (MLM)
Format: in vitro ADME
assay-setup: 1 μM compound, 0.5 mg/mL MLM, 1 mM NADPH, 37° C., read-out: half-life (t1/2) towards MLM
Experimental: For the evaluation of phase I metabolic stability, the compound (1 μM) was incubated with 0.5 mg/mL MLM (Corning) and 1 mM NADPH at 37° C. for 0, 5, 10, 15 and 30 min. The metabolic stability of Verapamil, Diphenhydramine and Benzydamine (1 μM each) were determined in parallel to confirm the enzymatic activity of the MLM. […] Concentration of the remaining test compound at the different time points was analyzed by HPLC-MS/MS and used to determine half-life (t1/2).
experimental-readout: half-life at 1 μM

molecular_string=Clc1cc(NCc2cnc(-c3ccc(Oc4ccccc4)cc3)s2)ccn1 experimental_readout="half-life at 1 μM" result="0.517 to 1 h"
molecular_string=Nc1cc(SCc2cnc(-c3ccc(Oc4ccccc4)cc3)s2)nc(C(F)(F)F)n1 experimental_readout="half-life at 1 μM" result="> 1 h"
molecular_string=O=C(c1ccccc1)c1ccc(-n2cc(CSc3ccnc(C(F)(F)F)c3)nn2)cc1 experimental_readout="half-life at 1 μM" result="> 1 h"
molecular_string=FC(F)(F)c1cc(NCc2cn(-c3ccc(Oc4ccccc4)cc3)nn2)cc(Cl)n1 experimental_readout="half-life at 1 μM" result="> 1 h"
molecular_string=Nc1cc(SCc2nc3cc(Oc4cccc(F)c4)ccc3[nH]2)nc(C(F)(F)F)n1 experimental_readout="half-life at 1 μM" result="0.517 to 1 h"
molecular_string=CC(C)Oc1ccc(-c2ncc(CNc3ccnc(C(F)(F)F)c3)cn2)cc1 experimental_readout="half-life at 1 μM" result="> 1 h"
molecular_string=CC(C)Oc1ccc(-c2ncc(CNc3cc(C#N)nc(C(F)(F)F)c3)s2)cc1Cl experimental_readout="half-life at 1 μM" result="0.517 to 1 h"
molecular_string=FC(F)(F)c1cc(NCc2cc(-c3ccc(Oc4ccccc4)cc3)no2)ccn1 experimental_readout="half-life at 1 μM" result="0.517 to 1 h"

###

Listing: pIC50 of selected compounds
measured-target: PqsR (Pseudomonas aeruginosa, UniProt Q9I4X0)
assay: E. coli based β-galactosidase reporter gene assay (PqsR inverse agonistic activity)
Type: cell-based
Set-up: expressed in transfected cells; host or cells: Escherichia coli DH5α
Procedure: Inhibition of pqsR-dependent gene expression of test compounds was determined in an E. coli based β-galactosidase reporter gene assay.[19] […] Antagonistic effects of compounds were evaluated in the presence of/in competition to 50 nM PQS. […] Finally, 995 μL of culture was added to each well and the p-galactosidase activity was determined by ortho-nitrophenyl-p-galactoside conversion in permeabilized cells after a 2.5 h incubation period (37° C., 180 rpm). […]
pIC50: −log10 of the molar value.
experimental-readout: pIC50

molecular_string=COc1c(C)cc(-c2ncc(CNc3ccnc(C(F)(F)F)c3)s2)cc1C result="6.00 to 6.60"
molecular_string=FC(F)(F)c1cc(SCc2cnc(-c3ccc(Oc4ccccc4)cc3)s2)ccn1 result="6.60 to 7.29"
molecular_string=Clc1cc(SCc2nc3cc(Oc4ccccc4)ccc3[nH]2)ccn1 result="6.60 to 7.29"
molecular_string=N#Cc1cc(NCc2cn(-c3ccc(Oc4ccccc4)cc3)nn2)ccn1 result="≥ 7.30"
molecular_string=FC(F)(F)c1cc(NCc2cn(-c3ccc(Oc4ccc(Cl)cc4)cc3)nn2)ccn1 result="≥ 7.30"
molecular_string=FC(F)(F)c1cc(SCc2cnc(-c3ccc(Cl)cc3)s2)ccn1 result="6.00 to 6.60"
molecular_string=COC(=O)c1ccc(Oc2ccc3[nH]c(CSc4ccnc(C(F)(F)F)c4)nc3c2)cc1 result="6.00 to 6.60"
molecular_string=FC(F)(F)c1cc(NCc2cn(-c3ccc(-n4ccc5cccnc54)cc3)nn2)ccn1 result="≥ 7.30"
molecular_string=FC(F)(F)c1cc(NCc2cnc(-c3ccc(Oc4ccccc4)cc3)s2)cc(Cl)n1 result="≥ 7.30"
molecular_string=CC(C)Oc1ccc(-n2cc(CNc3cc(Cl)nc(C(F)(F)F)c3)nn2)cc1Cl result="≥ 7.30"
molecular_string=FC(F)(F)c1cc(NCc2cn(-c3ccc(Br)cc3)nn2)ccn1 result="6.00 to 6.60"
molecular_string=N#Cc1ccc(-n2cc(CNc3ccnc(C(F)(F)F)c3)nn2)cc1 result="6.00 to 6.60"
molecular_string=FC(F)(F)Oc1ccc(-n2cc(CSc3ccnc(C(F)(F)F)c3)nn2)cc1Cl result="6.60 to 7.29"
molecular_string=FC(F)(F)c1cc(SCc2nc(-c3ccc(Cl)cc3)no2)ccn1 result="6.00 to 6.60"
molecular_string=FC(F)(F)c1cc(NCc2csc(-c3ccc(Oc4ccccc4)cc3)n2)ccn1 result="≥ 7.30"
molecular_string=Nc1cc(SCc2cn(-c3ccc(Oc4ccccc4)cc3)nn2)nc(C(F)(F)F)n1 result="≥ 7.30"
molecular_string=Fc1cccc(Oc2ccc(-n3cc(CNc4ccnc(C(F)(F)F)c4)nn3)cc2)c1 result="≥ 7.30"

Values compiled from patent US11883387B2.
